Examples of molecules with documented IC50 follow.
test target: D2LR (Homo sapiens (Human), UniProt P14416)
Sequence (P14416 whole entry): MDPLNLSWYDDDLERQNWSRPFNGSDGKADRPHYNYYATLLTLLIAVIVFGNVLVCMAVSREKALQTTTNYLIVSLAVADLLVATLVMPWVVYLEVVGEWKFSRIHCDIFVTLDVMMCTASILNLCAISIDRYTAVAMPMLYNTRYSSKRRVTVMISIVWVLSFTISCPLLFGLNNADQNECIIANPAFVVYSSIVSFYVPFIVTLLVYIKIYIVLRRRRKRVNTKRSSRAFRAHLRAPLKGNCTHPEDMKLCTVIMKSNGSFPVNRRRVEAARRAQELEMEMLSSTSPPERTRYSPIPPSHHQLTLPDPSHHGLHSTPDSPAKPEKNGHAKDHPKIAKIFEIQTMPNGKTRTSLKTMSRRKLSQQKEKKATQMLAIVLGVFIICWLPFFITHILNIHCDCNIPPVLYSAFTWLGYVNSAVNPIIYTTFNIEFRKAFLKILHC
method summary: β-Arrestin Recruitment Assay, CHO-K1 DRD2L
Format: cell-based
reported conditions: antagonist vs EC80 6 nM Pergolide, CHO-K1 DRD2L cells; read-out: D2 IC50
Kindly answer with a numeric value in nM, unit omitted.

Please review the entries below; each comes with its answer.
{"columns": ["smiles code", "IC50 (nM)"],
 "data": [
  ["CN(C)Cc1cccc2nc(C(=O)NCCCCN3CCN(c4cc(C(F)(F)F)nc(C(C)(C)C)n4)CC3)cn12", 281],
  ["Cc1cc(N2CCN(CCCCNC(=O)N3CCN(c4ccccc4)CC3)CC2)nc(C(C)(C)C)n1", 376],
  ["CC(C)(C)c1nc(N2CCN(CCCCNC(=O)c3cn4ccccc4n3)CC2)cc(C(F)(F)F)n1", 261]
]}

Item CN(C)Cc1c(C(=O)NCCCCN2CCN(c3cc(C(F)(F)F)nc(C(C)(C)C)n3)CC2)nc2ccccn12 has what recorded IC50?
217

Item COc1ccc2c(c1)CN(C(=O)NCCCCN1CCN(c3cc(C(F)(F)F)nc(C(C)(C)C)n3)CC1)C2 has what recorded IC50?
157

###

test target: human D2-long dopamine receptor (Homo sapiens (Human), UniProt P14416)
Sequence (P14416 whole entry): as the sequence (P14416 whole entry) above
method summary: Radioligand binding (125I-IABN competition), D2
reported conditions: HEK cell membranes expressing human D2-long
Examples of molecules with documented Ki follow.
Kindly answer with a numeric value in nM, unit omitted.

Please review the entries below; each comes with its answer.
{"columns": ["smiles code", "assay endpoint", "assay result"],
 "data": [
  ["CC(C)(C)c1cc(N2CCN(CCCCNC(=O)N3CCN(S(=O)(=O)c4ccccc4)CC3)CC2)nc(C(C)(C)C)n1", "Ki", 448],
  ["CC(C)(C)c1nc(N2CCN(CCCCNC(=O)C3CCN(c4ccc(C(F)(F)F)cn4)CC3)CC2)cc(C(F)(F)F)n1", "Ki", 1800],
  ["CCN1CCN(C(=O)NCCCCN2CCN(c3cc(C(F)(F)F)nc(C(C)(C)C)n3)CC2)CC1", "Ki", 128]
]}

Item CC(C)(C)c1nc(N2CCN(CCCCNC(=O)N3CCN(c4cnccn4)CC3)CC2)cc(C(F)(F)F)n1 has what recorded Ki?
463

###

test target: D3R (Homo sapiens (Human), UniProt P35462)
Sequence (P35462 whole entry): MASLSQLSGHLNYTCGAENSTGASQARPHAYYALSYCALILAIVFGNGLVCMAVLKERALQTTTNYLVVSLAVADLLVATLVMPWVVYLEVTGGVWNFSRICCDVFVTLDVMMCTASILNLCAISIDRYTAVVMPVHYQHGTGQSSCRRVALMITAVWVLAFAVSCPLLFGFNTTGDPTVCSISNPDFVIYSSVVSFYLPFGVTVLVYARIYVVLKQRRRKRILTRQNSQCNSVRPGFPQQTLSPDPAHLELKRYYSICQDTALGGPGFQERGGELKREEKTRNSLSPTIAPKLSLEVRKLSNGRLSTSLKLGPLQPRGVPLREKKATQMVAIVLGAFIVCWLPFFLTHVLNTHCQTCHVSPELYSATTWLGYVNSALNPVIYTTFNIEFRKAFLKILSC
method summary: β-Arrestin Recruitment Assay, U2OS DRD3
Format: cell-based
reported conditions: ratio of β-arrestin IC50 values
assay endpoint: D2 IC50/D3 IC50

Please review the entries below; each comes with its answer.
{"columns": ["compound", "D2 IC50/D3 IC50"],
 "data": [
  ["CC(C)(C)c1nc(N2CCN(CCCCNC(=O)N3CCC(c4ccccc4)CC3)CC2)cc(C(F)(F)F)n1 [Compound 48]", ">18"],
  ["O=C(NCCCCN1CCN(c2ccnc3ccccc23)CC1)C1CCC(c2ccccc2)CC1 (stereo not shown) [Compound 104]", ">15"],
  ["CC(C)(C)c1nc(N2CCN(CCCCNC(=O)N3CCN(c4ccccc4)CC3)CC2)cc(C(F)(F)F)n1 [Compound 8]", ">81"]
]}

Continue with the compound presented below.
Item CC(C)(C)c1nc(N2CCN(CCCCNC(=O)N3CCc4c([nH]c5ccccc45)C3)CC2)cc(C(F)(F)F)n1 [Compound 55] has what recorded D2 IC50/D3 IC50?
>19

###

test target: human D3 dopamine receptor (Homo sapiens (Human), UniProt P35462)
method summary: Radioligand binding (125I-IABN competition), D3
reported conditions: calculated D2 Ki/D3 Ki
Procedure: The affinities of the target compounds were determined using radioligand binding experiments. […] Competition curves were modeled for a single site. Data from competition dose-response curves were analyzed using Tablecurve program (Jandel). IC50 values were converted to equilibrium dissociation constants (Ki values) using the Cheng and Prusoff correction.
assay endpoint: D2/D3 (D3 selectivity ratio, D2 Ki/D3 Ki)
Just the number, please, no unit attached.

Please review the entries below; each comes with its answer.
{"columns": ["compound", "assay result"],
 "data": [
  ["CC(C)(C)c1nc(N2CCN(CCCCNC(=O)N3CCN(c4ccncc4)CC3)CC2)cc(C(F)(F)F)n1", 38],
  ["CC(C)(C)c1nc(N2CCN(CCCCNC(=O)N3CCC(O)(c4ccc(Cl)cc4)CC3)CC2)cc(C(F)(F)F)n1", 16],
  ["CC(C)(C)c1nc(N2CCN(CCCCNC(=O)N3CCc4ccccc4C3)CC2)cc(C(F)(F)F)n1", 21],
  ["O=C(NCCCCN1CCN(c2ccnc3ccccc23)CC1)C1CCC(c2ccccc2)CC1 (stereo not drawn)", 146],
  ["O=C(NCCCCN1CCN(c2cccc(C(F)(F)F)c2)CC1)N1CCN(c2ccccc2)CC1", 21],
  ["O=C(NCCCCN1CCN(c2ccnc3ccccc23)CC1)c1nc2ccccn2c1Br", 8]
]}

Item CC(C)(C)c1nc(N2CCN(CCCCNC(=O)N3CCN(C4CC4)CC3c3ccccc3)CC2)cc(C(F)(F)F)n1 (stereo not drawn) has what recorded D2/D3 (D3 selectivity ratio, D2 Ki/D3 Ki)?
7

Item CN(C)Cc1c(C(=O)NCCCCN2CCN(c3cc(C(F)(F)F)nc(C(C)(C)C)n3)CC2)nc2ccccn12 has what recorded D2/D3 (D3 selectivity ratio, D2 Ki/D3 Ki)?
10

Item CC(C)(C)c1nc(N2CCN(CCCCNC(=O)N3CCN(c4cccc(C#N)c4)CC3)CC2)cc(C(F)(F)F)n1 has what recorded D2/D3 (D3 selectivity ratio, D2 Ki/D3 Ki)?
81

###

Examples of compounds with documented D2/D3 (D3 selectivity ratio, D2 Ki/D3 Ki) follow.
test target: human D3 dopamine receptor (Homo sapiens (Human))
method summary: Radioligand binding (125I-IABN competition), D3
reported conditions: calculated D2 Ki/D3 Ki
Just the number, please, no unit attached.

{"columns": ["compound", "assay result"],
 "data": [
  ["Cc1cc(N2CCN(CCCCNC(=O)N3CCN(c4ccccc4)CC3)CC2)nc(C(C)(C)C)n1 [Compound 5]", 136],
  ["CC(C)(C)c1nc(N2CCN(CCCCNC(=O)N3CCCc4ccccc43)CC2)cc(C(F)(F)F)n1 [Compound 70]", 6],
  ["Cc1ccccc1N1CCN(C(=O)NCCCCN2CCN(c3cc(C(F)(F)F)nc(C(C)(C)C)n3)CC2)CC1 [Compound 58]", 11]
]}

Item COc1ccc2[nH]c3c(c2c1)CN(C(=O)NCCCCN1CCN(c2cc(C(F)(F)F)nc(C(C)(C)C)n2)CC1)CC3 [Compound 92] has what recorded D2/D3 (D3 selectivity ratio, D2 Ki/D3 Ki)?
8

Item CC(C)(C)c1nc(N2CCN(CCCCNC(=O)N3CCN(c4ccc(-c5ccccc5)cc4)CC3)CC2)cc(C(F)(F)F)n1 [Compound 45] has what recorded D2/D3 (D3 selectivity ratio, D2 Ki/D3 Ki)?
25

Item Cc1ccc(N2CCN(C(=O)NCCCCN3CCN(c4cc(C(F)(F)F)nc(C(C)(C)C)n4)CC3)CC2)cc1 [Compound 23] has what recorded D2/D3 (D3 selectivity ratio, D2 Ki/D3 Ki)?
35

Item COc1ccc2c(c1)CN(C(=O)NCCCCN1CCN(c3cc(C(F)(F)F)nc(C(C)(C)C)n3)CC1)C2 [Compound 40] has what recorded D2/D3 (D3 selectivity ratio, D2 Ki/D3 Ki)?
432

Item CC(C)(C)c1nc(N2CCN(CCCCNC(=O)N3CCC(N4CCCCC4)CC3)CC2)cc(C(F)(F)F)n1 [Compound 75] has what recorded D2/D3 (D3 selectivity ratio, D2 Ki/D3 Ki)?
6

Item O=C(NCCCCN1CCN(c2ccnc3ccccc23)CC1)c1nc2ccccn2c1Cl [Compound 129] has what recorded D2/D3 (D3 selectivity ratio, D2 Ki/D3 Ki)?
11

Item CC(C)(C)c1nc(N2CCN(CCCCNC(=O)N3CCC(O)(c4ccccc4)CC3)CC2)cc(C(F)(F)F)n1 [Compound 49] has what recorded D2/D3 (D3 selectivity ratio, D2 Ki/D3 Ki)?
47

Item Cc1nnc2n1CCN(C(=O)NCCCCN1CCN(c3cc(C(F)(F)F)nc(C(C)(C)C)n3)CC1)C2 [Compound 87] has what recorded D2/D3 (D3 selectivity ratio, D2 Ki/D3 Ki)?
14

###

Examples of compounds with documented pKi follow.
test target: human D2-long dopamine receptor (Homo sapiens (Human), UniProt P14416)
method summary: Radioligand binding (125I-IABN competition), D2
reported conditions: HEK cell membranes expressing human D2-long
Bear in mind: pKi is minus log10 of a mol/L concentration; give just that figure.

Please review the entries below; each comes with its answer.
{"columns": ["smiles code", "pKi"],
 "data": [
  ["CC(C)(C)c1nc(N2CCN(CCCCNC(=O)N3CCN(c4cccc(Cl)c4Cl)CC3)CC2)cc(C(F)(F)F)n1", 6.12],
  ["Cc1ccccc1N1CCN(C(=O)NCCCCN2CCN(c3cc(C(F)(F)F)nc(C(C)(C)C)n3)CC2)CC1", 6.10],
  ["CC(C)(C)c1nc(N2CCN(CCCCNC(=O)N3CCN(c4cc(C#N)cc(C(F)(F)F)c4)CC3)CC2)cc(C(F)(F)F)n1", 6.05]
]}

Item COc1ccc2c(c1)CN(C(=O)NCCCCN1CCN(c3cc(C(F)(F)F)nc(C(C)(C)C)n3)CC1)C2 has what recorded pKi?
6.00

Item CC(C)(C)c1nc(N2CCN(CCCCNC(=O)N3CCN(c4ccc(-c5ccccc5)cc4)CC3)CC2)cc(C(F)(F)F)n1 has what recorded pKi?
6.21

Item CC(C)(C)c1nc(N2CCN(CCCCNC(=O)N3CCN(c4ccccc4)CC3)CC2)cc(C(F)(F)F)n1 has what recorded pKi?
6.33

Item CC(C)(C)c1nc(N2CCN(CCCCNC(=O)N3CCN(c4ccc(Cl)cc4)CC3)CC2)cc(C(F)(F)F)n1 has what recorded pKi?
6.19

This collection of values is drawn from patent US9598387B2.
